Each recorded value in this set is attributed to ChEMBL document CHEMBL3608201.

test: Plasma clearance in beagle dog at 18.8 mg/kg, iv administered as single dose; assay type: ADME, organism-based, Canis lupus familiaris
READOUT TYPE: clearance (mL/min/kg)

>>> df
                                smiles_text  unit_text  test_value
0  C[C@H]1COc2c(N3CCC(O)CC3)c(F)cc3c(=O)c(C(=O)O)cn1c23.N=C(N)NCCC[C@H](N)C(=O)O.O  mL/min/kg        11.6

* * *

Listed below: solubility values for each entry.
experiment: Aqueous solubility of the compound in water; type: physicochemical
READOUT TYPE: solubility (µg/mL)

>>> df
                                smiles_text  test_value
0  C[C@H]1COc2c(N3CCC(O)CC3)c(F)cc3c(=O)c(C(=O)O)cn1c23.N=C(N)NCCC[C@H](N)C(=O)O.O        5330
1  O=C(O)c1cn2c3c(c(N4CC[C@H](O)C4)c(F)cc3c1=O)OC[C@@H]2CF         440
2  C[C@H]1COc2c(N3CCC(O)CC3)c(F)cc3c(=O)c(C(=O)O)cn1c23         650
3  C[C@H]1COc2c(N3CC[C@H](O)C3)c(F)cc3c(=O)c(C(=O)O)cn1c23.O         370

* * *

Listed below: MIC values for each entry.
system: Streptococcus pneumoniae; experiment: Antimicrobial activity against Streptococcus pneumoniae ATCC 49619 by standard broth microdilution method; assay type: functional
READOUT TYPE: MIC

>>> df
                                smiles_text  readout_type   test_value
0  O=C(O)c1cn2c3c(c(N4CCC(O)CC4)c(F)cc3c1=O)OC[C@@H]2CF           MIC  0.125 µg/mL
1  C[C@H]1COc2c(N3CC[C@@H](O)C3)c(F)cc3c(=O)c(C(=O)O)cn1c23           MIC   0.25 µg/mL
2  C[C@H]1COc2c(N3CCC(O)CC3)c(F)cc3c(=O)c(C(=O)[O-])cn1c23.[K+]           MIC    0.5 µg/mL

* * *

experiment: Elimination half life in beagle dog at 18.8 mg/kg, iv administered as single dose; assay type: ADME, organism-based, Canis lupus familiaris; details: in vivo, read-out: beta t1/2 (converted)
READOUT TYPE: half-life (h)

>>> print(df.to_string())
                                smiles_text  test_value
0  C[C@H]1COc2c(N3CCC(O)CC3)c(F)cc3c(=O)c(C(=O)O)cn1c23.N=C(N)NCCC[C@H](N)C(=O)O.O        3.25

* * *

assay: Tmax in beagle dog at 18.8 mg/kg, iv administered as single dose; type: ADME, organism-based, Canis lupus familiaris; details: in vivo
READOUT TYPE: Tmax (min)

>>> df
                                smiles_text  test_value
0  C[C@H]1COc2c(N3CCC(O)CC3)c(F)cc3c(=O)c(C(=O)O)cn1c23.N=C(N)NCCC[C@H](N)C(=O)O.O         4.8

* * *

system: Streptococcus pneumoniae; experiment: Antimicrobial activity against Streptococcus pneumoniae ATCC 49619 by standard broth microdilution method; format: functional
# strict inequality: MIC < 0.5 µg/mL yields fulfilled, everything else yields not fulfilled

COMPOUND	SUBJECT OF TEST	CATEGORY
C[C@H]1COc2c(N3CCC(O)CC3)c(F)cc3c(=O)c(C(=O)O)cn1c23	Streptococcus pneumoniae	fulfilled
C[C@H]1COc2c(N3CC[C@H](O)C3)c(F)cc3c(=O)c(C(=O)O)cn1c23.O	Streptococcus pneumoniae	fulfilled
CC1(C)S[C@@H]2[C@H](NC(=O)Cc3ccccc3)C(=O)N2[C@H]1C(=O)O [PENICILLIN G]	Streptococcus pneumoniae	not fulfilled
O=C(O)c1cn2c3c(c(N4CC[C@H](O)C4)c(F)cc3c1=O)OC[C@@H]2CF	Streptococcus pneumoniae	fulfilled
C[C@H]1COc2c(N3CC[C@H](O)C3)c(F)cc3c(=O)c(C(=O)[O-])cn1c23.[Na+]	Streptococcus pneumoniae	not fulfilled
O=C(O)c1cn(C2CC2)c2cc(N3CCNCC3)c(F)cc2c1=O [CIPROFLOXACIN]	Streptococcus pneumoniae	not fulfilled
CN[C@H](CC(C)C)C(=O)N[C@H]1C(=O)N[C@@H](CC(N)=O)C(=O)N[C@H]2C(=O)N[C@H]3C(=O)N[C@H](C(=O)N[C@H](C(=O)O)c4cc(O)cc(O)c4-c4cc3ccc4O)[C@H](O)c3ccc(c(Cl)c3)Oc3cc2cc(c3O[C@@H]2O[C@H](CO)[C@@H](O)[C@H](O)[C@H]2O[C@H]2C[C@](C)(N)[C@H](O)[C@H](C)O2)Oc2ccc(cc2Cl)[C@H]1O [VANCOMYCIN]	Streptococcus pneumoniae	fulfilled
COc1c(N2C[C@@H]3CCCN[C@@H]3C2)c(F)cc2c(=O)c(C(=O)O)cn(C3CC3)c12 [MOXIFLOXACIN]	Streptococcus pneumoniae	fulfilled
C[C@H]1COc2c(N3CC(O)C3)c(F)cc3c(=O)c(C(=O)O)cn1c23	Streptococcus pneumoniae	fulfilled
O=C(O)c1cn2c3c(c(N4CC(O)C4)c(F)cc3c1=O)OC[C@@H]2CF	Streptococcus pneumoniae	fulfilled
C[C@H]1COc2c(N3CCC(O)CC3)c(F)cc3c(=O)c(C(=O)O)cn1c23.N=C(N)NCCC[C@H](N)C(=O)O.O	Streptococcus pneumoniae	fulfilled
C[C@H]1COc2c(N3CC[C@H](O)C3)c(F)cc3c(=O)c(C(=O)[O-])cn1c23.[K+]	Streptococcus pneumoniae	not fulfilled
C[C@H]1COc2c(N3CC[C@H](O)C3)c(F)cc3c(=O)c(C(=O)O)cn1c23	Streptococcus pneumoniae	not fulfilled
